pIC50: −log10 of the molar value.
For each record, write down the corresponding pIC50.

The value of pIC50 recorded for CC(=O)Oc1ccc(/C=C2\C[C@@]3(C)C(=C(C)C2=O)CCC[C@@H]3O)cc1 when tested on UniProt P28845 reads > 5.00

The value of pIC50 recorded for CC1=C2CCC[C@H](O)[C@@]2(C)C/C(=C\c2ccc(C#CC3CCCCC3)cc2)C1=O when tested on UniProt P28845 reads > 5.00

The value of pIC50 recorded for CC1=C2CCC[C@H](O)[C@@]2(C)C/C(=C\c2ccc(Br)cc2)C1=O when tested on UniProt P28845 reads 4.30 to 5.00

The value of pIC50 recorded for CCc1cc(OC)ccc1/C=C1\C[C@@]2(C)C(=C(C)C1=O)CCC[C@@H]2O when tested on UniProt P28845 reads > 5.00

The value of pIC50 recorded for CC1(Cc2cc(Br)cc(Br)c2)C(=O)/C(=C/c2ccc(I)cc2)CC2(C)C1CCCC21OCCO1 (centres unmarked) when tested on UniProt P28845 reads > 5.00

The value of pIC50 recorded for CC1=C2CCC[C@H](O)[C@@]2(C)C/C(=C\c2cccnc2)C1=O when tested on UniProt P28845 reads > 5.00

The value of pIC50 recorded for CC1=C2CCC[C@H](O)[C@@]2(C)C/C(=C\c2ccc(F)c(F)c2)C1=O when tested on UniProt P28845 reads > 5.00

The value of pIC50 recorded for C=C1C(C)=C2CCC[C@H](O)[C@@]2(C)C/C1=C\CCCC when tested on UniProt P28845 reads > 5.00

The value of pIC50 recorded for CCCCCCCCCCC/C=C1\C[C@@]2(C)C(=C(C)C1=O)CCC[C@@H]2O when tested on UniProt P28845 reads > 5.00

The value of pIC50 recorded for CCC/C=C1\C[C@@]2(C)C(=C(C)C1=O)CCC[C@@H]2O when tested on UniProt P28845 reads > 5.00

The value of pIC50 recorded for CC1=C2CCC[C@H](O)[C@@]2(C)C/C(=C\c2cc(Cl)cs2)C1=O when tested on UniProt P28845 reads > 5.00

The value of pIC50 recorded for COc1ccc(/C=C2\C[C@@]3(C)C(=C(C)C2=O)CCC[C@@H]3O)cc1 when tested on UniProt P28845 reads > 5.00

The value of pIC50 recorded for C=C1C(C)=C2CCC[C@H](O)[C@@]2(C)C/C1=C\c1ccccc1 when tested on UniProt P28845 reads > 5.00

The value of pIC50 recorded for C/C=C/C=C1\C[C@@]2(C)C(=C(C)C1=O)CCC[C@@H]2O when tested on UniProt P28845 reads > 5.00

The value of pIC50 recorded for CSc1ccc(/C=C2\C[C@@]3(C)C(=C(C)C2=O)CCC[C@@H]3O)cc1 when tested on UniProt P28845 reads > 5.00

The value of pIC50 recorded for CC(=O)Oc1cccc(/C=C2\C[C@@]3(C)C(=C(C)C2=O)CCC[C@@H]3O)c1 when tested on UniProt P28845 reads > 5.00

The value of pIC50 recorded for CC1=C2CCC[C@H](O)[C@@]2(C)C/C(=C\c2cc3ccccc3o2)C1=O when tested on UniProt P28845 reads > 5.00

Where do these numbers come from? They come from patent US20090062401A1.
